- Tested on: MM.1S cells
- Assay text: MM.1S cell proliferation inhibition (MTS assay)
- Format: cell-based
- Test context: Homo sapiens, MM1.S, 168 h, 7 days incubation, read-out: MM1.S (IC50, Inhibitory Activity of Compounds on MM.1S Cell Proliferation)
Entries and their IC50 values follow.

Give IC50 for the following compound: COc1ccc(-c2ncc(COc3cccc4c(=O)n(C5CCC(=O)NC5=O)[nH]c34)o2)cc1 (centres unmarked)
1000 to 10000 nM

Give IC50 for the following compound: O=C1CCC(n2[nH]c3c(OCc4ccc(CN5CC(N6CCOCC6)C5)cc4)cc(F)cc3c2=O)C(=O)N1 (centres unmarked)
< 200 nM

* * *

- Test system: MM.1S cells
- Assay text: MM.1S cell proliferation inhibition (MTS assay)
- Assay type: cell-based
- Test context: Homo sapiens, MM1.S, 168 h, 7 days incubation, read-out: MM1.S (IC50, Inhibitory Activity of Compounds on MM.1S Cell Proliferation)
pIC50: −log10 of the molar value.
Property: pIC50

Below are worked cases with known answers.
# Compound, Measurement target, pIC50
data = [
    ("O=C1CCC(n2[nH]c3cc(C(=O)N[C@H](c4ccccc4)C(F)(F)F)ccc3c2=O)C(=O)N1 (stereo partly shown)", "MM.1S cells", "< 5.00"),
    ("O=C1CCC(n2[nH]c3c(OCc4ccc(CN5CCN(c6ccc(C(F)(F)F)cc6)CC5)cc4)cccc3c2=O)C(=O)N1 (stereo not shown)", "MM.1S cells", "> 6.70"),
    ("C[C@H](NC(=O)c1ccc2c(=O)n(C3CCC(=O)NC3=O)[nH]c2c1)c1ccccc1 (stereo partly shown)", "MM.1S cells", "< 5.00"),
    ("O=C1CCC(n2[nH]c3c(OCc4ccc(CN5CCN(c6ccc(Cl)cc6)CC5)cc4)cccc3c2=O)C(=O)N1 (stereo not shown)", "MM.1S cells", "> 6.70"),
    ("O=C1CCC(n2[nH]c3c(OCc4ccc(CN5CCN(c6ccc(F)cc6)CC5)cc4)cccc3c2=O)C(=O)N1 (stereo not shown)", "MM.1S cells", "> 6.70"),
]

Give pIC50 for the following compound: O=C1CC[C@H](n2[nH]c3c(OCc4ccc(CN5CCOCC5)cc4)cccc3c2=O)C(=O)N1 [Compound D1]
> 6.70

Give pIC50 for the following compound: O=C1CC[C@H](n2[nH]c3c(OCc4cnc(-c5ccc(Cl)cc5)o4)cccc3c2=O)C(=O)N1
5.00 to 6.00

* * *

- Measurement target: CRBN/DDB1 (Homo sapiens, UniProt Q96SW2)
- Sequence (Q96SW2 whole entry, species assumed): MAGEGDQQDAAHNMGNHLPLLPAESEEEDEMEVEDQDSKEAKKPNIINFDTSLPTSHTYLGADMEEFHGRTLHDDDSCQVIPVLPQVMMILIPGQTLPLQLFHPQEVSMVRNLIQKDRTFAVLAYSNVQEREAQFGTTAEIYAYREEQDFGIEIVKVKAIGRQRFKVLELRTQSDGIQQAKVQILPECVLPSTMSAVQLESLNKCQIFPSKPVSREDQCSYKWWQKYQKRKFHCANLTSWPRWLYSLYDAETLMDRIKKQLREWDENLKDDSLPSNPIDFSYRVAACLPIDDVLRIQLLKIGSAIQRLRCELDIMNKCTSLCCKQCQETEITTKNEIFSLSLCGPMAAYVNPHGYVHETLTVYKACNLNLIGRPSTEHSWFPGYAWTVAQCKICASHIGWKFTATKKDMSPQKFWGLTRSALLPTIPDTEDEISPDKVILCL
- Sequence (Q16531 whole entry partner, species assumed): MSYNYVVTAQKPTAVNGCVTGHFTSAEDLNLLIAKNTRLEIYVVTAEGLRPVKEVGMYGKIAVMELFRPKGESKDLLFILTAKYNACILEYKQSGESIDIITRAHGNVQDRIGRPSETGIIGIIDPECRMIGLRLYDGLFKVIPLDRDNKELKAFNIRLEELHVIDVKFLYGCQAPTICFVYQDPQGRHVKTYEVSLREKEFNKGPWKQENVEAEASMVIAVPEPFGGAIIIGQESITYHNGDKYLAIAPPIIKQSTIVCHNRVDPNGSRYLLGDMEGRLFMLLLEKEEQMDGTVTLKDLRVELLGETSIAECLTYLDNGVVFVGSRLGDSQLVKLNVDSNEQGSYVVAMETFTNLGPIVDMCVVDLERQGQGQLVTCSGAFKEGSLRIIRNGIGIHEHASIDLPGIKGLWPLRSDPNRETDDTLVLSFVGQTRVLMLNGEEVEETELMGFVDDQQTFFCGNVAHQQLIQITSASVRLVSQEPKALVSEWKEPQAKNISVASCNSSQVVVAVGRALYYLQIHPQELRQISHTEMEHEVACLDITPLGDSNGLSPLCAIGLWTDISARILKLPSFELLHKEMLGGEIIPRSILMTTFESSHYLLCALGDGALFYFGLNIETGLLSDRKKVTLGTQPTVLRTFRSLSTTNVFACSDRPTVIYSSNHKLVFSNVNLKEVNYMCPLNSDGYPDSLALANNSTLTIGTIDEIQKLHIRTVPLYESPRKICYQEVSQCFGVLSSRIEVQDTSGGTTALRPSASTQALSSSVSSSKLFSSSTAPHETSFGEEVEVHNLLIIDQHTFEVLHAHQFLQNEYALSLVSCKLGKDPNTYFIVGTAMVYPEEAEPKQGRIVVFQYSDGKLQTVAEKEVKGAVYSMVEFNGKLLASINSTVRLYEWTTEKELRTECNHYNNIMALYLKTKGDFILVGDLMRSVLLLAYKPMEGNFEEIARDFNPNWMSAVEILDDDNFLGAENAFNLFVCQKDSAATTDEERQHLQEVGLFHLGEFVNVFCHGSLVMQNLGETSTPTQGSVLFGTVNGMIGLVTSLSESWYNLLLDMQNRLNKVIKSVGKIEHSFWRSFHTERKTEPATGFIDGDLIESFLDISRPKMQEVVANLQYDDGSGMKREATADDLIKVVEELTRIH
- Assay text: CRBN/DDB1 binding TR-FRET assay
- Test context: read-out: AVE_Inhibition% (1 µM)
Entries and their inhibition at 1 µM values follow.

Below are worked cases with known answers.
# Compound, inhibition at 1 µM
records = [
    ("CCn1c2c(OCc3ccc(CN4CCN(c5ccc(C#N)cc5F)CC4)cc3)cccc2c(=O)n1C1CCC(=O)NC1=O (stereo not shown)", "< 50%"),
    ("O=C1CCC(n2[nH]c3c(OCc4ccc(CN5CCN(c6ccc(F)cc6F)CC5)cc4)cccc3c2=O)C(=O)N1 (stereo not shown)", "> 90%"),
    ("O=C1CC[C@H](n2[nH]c3cc(CNC(=O)C(F)(F)c4ccc(Cl)cc4)ccc3c2=O)C(=O)N1", "< 50%"),
]

Let's switch to this compound now.
Give inhibition at 1 µM for the following compound: CCn1c2c(OCc3ccc(CN4CCOCC4)cc3)cccc2c(=O)n1C1CCC(=O)NC1=O (stereo not shown)
< 50%
